The values you see were collected from patent US9346798B2.

tgt: UniProt Q15858
protocol.text: Nav 1.7 in vitro assay, IonWorks Quattro (IWQ) population patch-clamp
Assay type: cell-based
test.settings: HEK 293 cells stably transfected with Nav 1.7; 26th pulse to -20 mV

molecule: Cn1ccc(NS(=O)(=O)c2ccc3c(c2)OCCN3c2ccc(C(F)(F)F)cc2Cl)n1
IC50, nM: 6110
//
molecule: O=S(=O)(Nc1nccs1)c1ccc2c(c1)OCCN2c1ccc(-n2cccn2)cc1
IC50, nM: 671
//
molecule: Cc1cc(OC(F)F)cnc1N1CCOc2cc(S(=O)(=O)Nc3nccs3)ccc21
IC50, nM: 416
//
molecule: Cc1onc(-c2ccccc2)c1CN1CCOc2cc(S(=O)(=O)Nc3nccs3)ccc21
IC50, nM: 564
//
molecule: N#Cc1ccc(OC(F)(F)F)cc1N1CCOc2cc(S(=O)(=O)Nc3nccs3)ccc21
IC50, nM: 69.5
//
molecule: COCCNc1cc(C(F)(F)F)ccc1N1CCOc2cc(S(=O)(=O)Nc3ccncn3)ccc21
IC50, nM: 28.5
//
molecule: COc1ccc(N2CCOc3cc(S(=O)(=O)Nc4nccs4)ccc32)cc1C#N
IC50, nM: 660
//
molecule: Cc1cc(N2CCOc3cc(S(=O)(=O)Nc4nccs4)ccc32)ccc1C#N
IC50, nM: 841
//
molecule: CN1CCN(c2ccc(C(F)(F)F)cc2Cl)c2ccc(S(=O)(=O)Nc3ncns3)cc21
IC50, nM: 1180
//
molecule: [N-]=[N+]=Nc1ccc(N2CCOc3cc(S(=O)(=O)Nc4nccs4)ccc32)c(Br)c1 [Example 64, 2,2,2-Trifluoroacetate]
IC50, nM: 418
//
molecule: Cc1cncc(C)c1N1CCOc2cc(S(=O)(=O)Nc3nccs3)ccc21
IC50, nM: 1590
//
molecule: O=S(=O)(Nc1ncns1)c1ccc2c(c1)OCCN2c1ccc(C(F)(F)F)cc1C1=CCNCC1
IC50, nM: 4.4
//
molecule: O=S(=O)(Nc1nccs1)c1ccc2c(c1)OCCN2c1cc(Cl)ccc1Cl [Example 180, 2,2,2-Trifluoroacetate]
IC50, nM: 104
//
molecule: NCc1nsc(NS(=O)(=O)c2ccc3c(c2)OCCN3c2ccc(C(F)(F)F)cc2Cl)n1 [Example 8, 2,2,2-Trifluoroacetate]
IC50, nM: 7580
//
molecule: COc1cc(C#N)ccc1N1CCOc2cc(S(=O)(=O)Nc3nccs3)ccc21 [Example 181, 2,2,2-Trifluoroacetate]
IC50, nM: 7.5

====

tgt: Nav 1.7 (Homo sapiens (Human), UniProt Q15858)
Sequence (Q15858 whole entry): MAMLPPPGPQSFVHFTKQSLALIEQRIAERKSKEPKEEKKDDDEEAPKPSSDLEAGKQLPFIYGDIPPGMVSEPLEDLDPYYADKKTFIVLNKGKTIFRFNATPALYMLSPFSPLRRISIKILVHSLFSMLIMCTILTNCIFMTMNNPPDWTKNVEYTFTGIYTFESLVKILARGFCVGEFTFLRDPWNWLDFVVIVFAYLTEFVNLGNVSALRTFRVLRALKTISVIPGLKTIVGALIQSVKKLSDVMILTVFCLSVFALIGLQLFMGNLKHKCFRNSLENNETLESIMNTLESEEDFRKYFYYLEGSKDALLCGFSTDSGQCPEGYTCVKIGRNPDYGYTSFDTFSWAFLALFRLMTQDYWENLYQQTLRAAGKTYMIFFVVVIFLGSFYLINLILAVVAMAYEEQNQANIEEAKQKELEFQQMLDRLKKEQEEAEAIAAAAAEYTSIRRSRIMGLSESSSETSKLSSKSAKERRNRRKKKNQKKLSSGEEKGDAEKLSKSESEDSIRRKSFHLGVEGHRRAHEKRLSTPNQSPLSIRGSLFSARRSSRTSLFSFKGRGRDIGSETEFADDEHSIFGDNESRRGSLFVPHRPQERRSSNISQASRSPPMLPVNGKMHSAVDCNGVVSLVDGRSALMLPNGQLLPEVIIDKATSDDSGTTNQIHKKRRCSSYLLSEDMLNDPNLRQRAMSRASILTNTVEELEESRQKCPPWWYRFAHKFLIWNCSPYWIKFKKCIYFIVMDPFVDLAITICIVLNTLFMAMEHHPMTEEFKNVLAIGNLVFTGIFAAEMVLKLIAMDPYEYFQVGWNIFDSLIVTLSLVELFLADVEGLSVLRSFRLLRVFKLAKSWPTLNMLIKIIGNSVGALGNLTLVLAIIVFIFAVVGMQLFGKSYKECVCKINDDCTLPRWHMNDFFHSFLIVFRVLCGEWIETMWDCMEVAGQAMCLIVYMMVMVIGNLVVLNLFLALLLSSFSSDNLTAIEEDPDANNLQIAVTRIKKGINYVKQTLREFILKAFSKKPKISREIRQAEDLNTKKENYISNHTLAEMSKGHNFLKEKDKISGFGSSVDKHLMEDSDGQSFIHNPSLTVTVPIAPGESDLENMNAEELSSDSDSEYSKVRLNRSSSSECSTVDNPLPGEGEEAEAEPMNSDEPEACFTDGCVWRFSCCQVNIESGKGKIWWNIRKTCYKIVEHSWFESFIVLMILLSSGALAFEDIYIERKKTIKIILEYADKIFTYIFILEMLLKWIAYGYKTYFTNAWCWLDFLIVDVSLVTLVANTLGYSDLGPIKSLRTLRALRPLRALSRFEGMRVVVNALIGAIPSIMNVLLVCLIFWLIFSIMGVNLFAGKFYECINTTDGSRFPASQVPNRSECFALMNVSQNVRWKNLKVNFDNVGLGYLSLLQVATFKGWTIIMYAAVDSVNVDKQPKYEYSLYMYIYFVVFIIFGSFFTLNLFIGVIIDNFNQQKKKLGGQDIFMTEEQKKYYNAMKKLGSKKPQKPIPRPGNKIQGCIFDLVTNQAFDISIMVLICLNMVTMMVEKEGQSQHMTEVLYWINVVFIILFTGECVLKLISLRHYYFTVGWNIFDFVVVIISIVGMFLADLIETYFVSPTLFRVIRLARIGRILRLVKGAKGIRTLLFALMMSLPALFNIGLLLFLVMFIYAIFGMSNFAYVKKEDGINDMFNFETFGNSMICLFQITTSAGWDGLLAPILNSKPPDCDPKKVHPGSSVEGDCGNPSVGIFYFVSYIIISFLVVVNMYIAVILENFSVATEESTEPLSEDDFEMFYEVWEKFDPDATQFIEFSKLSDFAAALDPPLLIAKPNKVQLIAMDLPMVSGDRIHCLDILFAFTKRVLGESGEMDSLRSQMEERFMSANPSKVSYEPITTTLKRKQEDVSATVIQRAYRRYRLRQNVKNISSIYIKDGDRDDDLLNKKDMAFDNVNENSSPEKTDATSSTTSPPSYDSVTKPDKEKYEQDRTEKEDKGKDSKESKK
protocol.text: Nav 1.7 in vitro assay, IonWorks Quattro (IWQ) population patch-clamp
Type: cell-based
test.settings: HEK 293 cells stably transfected with Nav 1.7; 26th pulse to -20 mV
pIC50: −log10 of the molar value.
pIC50: recorded values

molecule: N#Cc1cncc(N2CCOc3cc(S(=O)(=O)Nc4nccs4)ccc32)c1 [Example 117]
pIC50: 5.67
//
molecule: COc1cc(C)c(N2CCOc3cc(S(=O)(=O)Nc4nccs4)ccc32)cn1 [Example 137]
pIC50: 6.04
//
molecule: COc1cc(-c2cccc(F)c2)ccc1N1CCOc2cc(S(=O)(=O)Nc3nccs3)ccc21 [Example 201]
pIC50: 6.84
//
molecule: O=S(=O)(Nc1nccs1)c1ccc2c(c1)OCCN2c1ccc(C(F)(F)F)nc1 [Example 122]
pIC50: 6.21

====

IC50: recorded values
tgt: Nav 1.7 (Homo sapiens (Human))
protocol.text: Nav 1.7 in vitro assay, IonWorks Quattro (IWQ) population patch-clamp
Assay type: cell-based
test.settings: HEK 293 cells stably transfected with Nav 1.7; 26th pulse to -20 mV
Description: Nav 1.7 and Nav 1.5 In Vitro Assays HEK 293 cells stably transfected with either Nav 1.7 or with Nav 1.5 were recorded in population patch-clamp mode with the IonWorks® Quattro automated electrophysiology system in accordance with the manufacturer's specifications (Molecular Devices, LLC, Sunnyvale, Calif.). Sodium channel currents were measured in response to a train of depolarizations that induced successively greater inactivation. […]

compound: CN1CCN(c2cc(C(F)(F)F)ccc2N2CCOc3cc(S(=O)(=O)Nc4nccs4)ccc32)CC1 [Example 50, 2,2,2-Trifluoroacetate]
IC50: 117 nM
//
compound: O=S(=O)(Nc1nccs1)c1ccc2c(c1)OCCN2c1ccc(C(F)(F)F)cn1 [Example 183]
IC50: 177 nM
//
compound: N#CCc1cccc(N2CCOc3cc(S(=O)(=O)Nc4nccs4)ccc32)c1 [Example 174, 2,2,2-Trifluoroacetate]
IC50: 211 nM
//
compound: COc1cc(C#N)ccc1N1CC(C)Oc2cc(S(=O)(=O)Nc3nccs3)ccc21 (racemic) [Example 106]
IC50: 42.5 nM
//
compound: N#Cc1ccccc1N1CCOc2cc(S(=O)(=O)Nc3nccs3)ccc21 [Example 58, 2,2,2-Trifluoroacetate]
IC50: 225 nM

====

tgt: Nav 1.7 (Homo sapiens (Human), UniProt Q15858)
protocol.text: Nav 1.7 in vitro PX assay, PatchXpress whole cell voltage clamp
Format: cell-based
test.settings: HEK 293 cells stably transfected with human Nav1.7; partially inactivated state (20 to 50% inactivation)

molecule: O=S(=O)(Nc1nccs1)c1ccc2c(c1)OCCN2c1ccc(C(F)(F)F)cc1C[C@H](O)CO (single isomer, unassigned) [Example 208]
IC50: 258 nM

molecule: CN1CCN(c2ccc(C(F)(F)F)cc2Cl)c2ccc(S(=O)(=O)Nc3ncns3)cc21 [Example 19]
IC50: 4890 nM

molecule: COc1ccc(N2CCOc3cc(S(=O)(=O)Nc4ncns4)ccc32)cc1 [Example 37]
IC50: 2200 nM

molecule: Cc1ccc(Cl)c(N2CCOc3cc(S(=O)(=O)Nc4nccs4)ccc32)c1 [Example 67, 2,2,2-Trifluoroacetate]
IC50: 442 nM

molecule: COc1cc(C#N)ccc1N1CCOc2cc(S(=O)(=O)Nc3nccs3)c(F)cc21 [Example 217]
IC50: 207 nM

molecule: [N-]=[N+]=Nc1ccc(N2CCOc3cc(S(=O)(=O)Nc4nccs4)ccc32)c(C2=CCNCC2)c1 [Example 65, Bis(2,2,2-Trifluoroacetate)]
IC50: 24.4 nM

molecule: COc1cc(Cl)ccc1N1CC(C)Oc2cc(S(=O)(=O)Nc3nccs3)ccc21 (racemic) [Example 103]
IC50: 422 nM

molecule: COCCOc1ccccc1N1CCOc2cc(S(=O)(=O)Nc3nccs3)ccc21 [Example 229]
IC50: 3160 nM

====

IC50: recorded values
tgt: Nav 1.7 (Homo sapiens (Human))
protocol.text: Nav 1.7 in vitro PX assay, PatchXpress whole cell voltage clamp
Format: cell-based
test.settings: HEK 293 cells stably transfected with human Nav1.7; partially inactivated state (20 to 50% inactivation)
property.name: IC50 (nM)

compound: CC(C)(C#N)Oc1ccccc1N1CCOc2cc(S(=O)(=O)Nc3nccs3)ccc21
value.measured: 3600

compound: O=S(=O)(Nc1nccs1)c1ccc2c(c1)OCCN2c1ccc(C(F)(F)F)cc1C(O)CO (stereo not shown)
value.measured: 343

compound: N#Cc1cc(C(F)(F)F)ccc1N1CCOc2cc(S(=O)(=O)Nc3nccs3)cc(F)c21
value.measured: 1990

compound: COc1cc(C(F)(F)F)ccc1N1C(=O)COc2cc(S(=O)(=O)Nc3ncns3)ccc21
value.measured: 175

====

tgt: Nav 1.7 (Homo sapiens (Human), UniProt Q15858)
protocol.text: Nav 1.7 in vitro assay, IonWorks Quattro (IWQ) population patch-clamp
Format: cell-based
test.settings: HEK 293 cells stably transfected with Nav 1.7; 26th pulse to -20 mV
pIC50: −log10 of the molar value.
property.name: pIC50

molecule: N#Cc1cc(Cl)ccc1N1CCOc2cc(S(=O)(=O)Nc3nccs3)ccc21
tgt: Nav 1.7 (Homo sapiens (Human), UniProt Q15858)
value.measured: 7.29
--
molecule: O=S(=O)(Nc1nccs1)c1ccc2c(c1)OCCN2c1ccc2ncccc2c1 [Example 66, 2,2,2-Trifluoroacetate]
tgt: Nav 1.7 (Homo sapiens (Human), UniProt Q15858)
value.measured: 5.43
--
molecule: O=S(=O)(Nc1nccs1)c1ccc2c(c1)OCCN2c1ccc(C(F)(F)F)cc1C(O)CO (stereo not shown)
tgt: Nav 1.7 (Homo sapiens (Human), UniProt Q15858)
value.measured: 7.32
--
molecule: CC(C)c1ccc(N2CCOc3cc(S(=O)(=O)Nc4nccs4)ccc32)cc1
tgt: Nav 1.7 (Homo sapiens (Human), UniProt Q15858)
value.measured: 5.78
--
molecule: O=S(=O)(Nc1ccon1)c1ccc2c(c1)OCCN2c1ccc(C(F)(F)F)cc1Cl
tgt: Nav 1.7 (Homo sapiens (Human), UniProt Q15858)
value.measured: 5.76
--
molecule: N#Cc1cccc(F)c1N1CCOc2cc(S(=O)(=O)Nc3nccs3)ccc21
tgt: Nav 1.7 (Homo sapiens (Human), UniProt Q15858)
value.measured: 5.85
--
molecule: COc1cc(F)ccc1N1CCOc2cc(S(=O)(=O)Nc3nccs3)ccc21
tgt: Nav 1.7 (Homo sapiens (Human), UniProt Q15858)
value.measured: 7.77
